Target: T1, APC4011-AA
T1 chain: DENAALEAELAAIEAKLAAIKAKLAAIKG
Assay: two-hybrid library CCmax;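 also: natural log of median RNA to DNA barcode read ratio; higher means stronger binding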
Conditions: mean of both orientations
valueKind: interaction score

Known results for binders:
1. DEAAALEAENAALEAELAAIEAKNAALKG [APC2405-AA]; -1.01
2. DEAAALEAEAAALEAKAAALKAKLAAEKG [APC2237-AA]; 1.54
3. DKAAALKAELAAEEAENAALEAKNAALKG [APC3645-AA]; -1.34

A. DEIAALKAENAALKAEIAALKAENAALKG [4H716-AA]
B. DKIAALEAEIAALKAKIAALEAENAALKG [4H2148-AA]
C. DKNAALEAKIAALEAEIAALEAEIAALKG [4H3330-AA]
Q. Form: Sort by [interaction score] Order [ ascending ] Lab note: record answer as labels in requested order.
A. A, B, C
(A: -1.44, B: -0.327, C: 2.04)
